Target system: Glycogen synthase kinase-3 beta (Homo sapiens, UniProt P49841)
Sequence (P49841 whole entry): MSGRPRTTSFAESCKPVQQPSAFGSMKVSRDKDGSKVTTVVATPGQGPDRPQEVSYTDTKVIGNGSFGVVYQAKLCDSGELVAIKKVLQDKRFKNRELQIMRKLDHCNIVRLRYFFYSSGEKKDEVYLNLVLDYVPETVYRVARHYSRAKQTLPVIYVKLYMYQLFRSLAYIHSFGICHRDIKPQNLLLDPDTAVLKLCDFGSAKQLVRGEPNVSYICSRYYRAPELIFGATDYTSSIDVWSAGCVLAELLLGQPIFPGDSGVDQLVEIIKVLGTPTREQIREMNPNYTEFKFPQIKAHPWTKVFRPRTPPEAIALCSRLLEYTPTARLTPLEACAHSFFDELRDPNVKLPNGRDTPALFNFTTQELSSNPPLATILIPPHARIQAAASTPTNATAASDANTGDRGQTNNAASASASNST
Test method notes: concentration-response blocking of human GSK3B – biochemical, luminescence, cell-free homogeneous, retest, dose response (AID 434954)
We begin with a simple list: items and their reported EC50.
Measured endpoint: EC50

>>> measured("c1ccc(Cn2c(-c3ccco3)nc3nc4ccccc4nc32)cc1")
"> 300 µM"
>>> measured("CCN(CC)C(=O)CSc1nc(N)c(C#N)c(-c2cccs2)c1C#N")
"> 300 µM"
>>> measured("CCCSCCCNC(=O)Cn1nc(CC)n2c(cc3c(OC)cccc32)c1=O")
"> 300 µM"
>>> measured("O=C(NC1CCC(C(=O)O)CC1)OCc1ccccc1 (configuration not stated)")
"> 300 µM"
>>> measured("CC(=O)Nc1ccc(S(=O)(=O)Nc2ccc3c(c2)OCCO3)cc1Cl")
"> 300 µM"
>>> measured("CN1/C(=C/C=C(/C#N)C(N)=O)C(C)(C)c2ccccc21")
"15.5 µM"
>>> measured("COc1ccc(OC)c(CCNC(=O)c2ccc3c(=O)[nH]c4c(C(=O)NC(C)C)sc(=S)n4c3c2)c1")
"> 300 µM"

###

We begin with a simple list: items and their reported pEC50.
Target system: UniProtKB P49841
Test method notes: concentration-response blocking of human GSK3B – biochemical, luminescence, cell-free homogeneous, retest, dose response (AID 434954)
pEC50: −log10 of the molar value.
Measured endpoint: pEC50

>>> measured("CCn1c(SCC(=O)Nc2nccs2)nnc1C1CC1")
"< 3.52"
>>> measured("Cc1cc(C(=O)c2ccccc2)c(NC(=O)CN2CCOCC2)s1")
"< 3.52"
>>> measured("O=C(CN(Cc1ccccc1)C(=O)CCC(=O)Nc1ccccn1)NCc1ccc(F)cc1")
4.23
>>> measured("O=C(O)C1C2C=CC(O2)C1C(=O)NCc1ccc(Cl)cc1 (stereo unspecified)")
"< 3.52"
>>> measured("CC(C)(C)c1csc(NC(=O)c2cccnc2)n1")
"< 3.52"
>>> measured("Cc1ccccc1C(=O)Nc1ccc(O)c2c(=O)cc(-c3ccccc3Cl)oc12")
"< 3.52"
>>> measured("Nc1nonc1-n1nnc(C(=O)NN=Cc2ccc(OCc3ccccc3)cc2)c1CN1CCCCC1")
5.05
>>> measured("COCCn1c(SCC(=O)Nc2ccc(Cl)cn2)nnc1-c1ccncc1")
4.31
>>> measured("Cc1cc(NC(=O)COc2cccnc2[N+](=O)[O-])no1")
"< 3.52"
>>> measured("C=CCn1c(=O)c(C(=O)NCc2ccc(Cl)cc2)c(O)c2ccccc21")
"< 3.52"
>>> measured("COc1ccc(OC)c(C(=O)c2coc3ccc(O)cc23)c1")
"< 3.52"

###

We begin with a simple list: items and their reported pEC50.
Target system: Glycogen synthase kinase-3 beta (Homo sapiens)
Test method notes: concentration-response blocking of human GSK3B – biochemical, luminescence, cell-free homogeneous, retest, dose response (AID 434954)
pEC50: −log10 of the molar value.
Measured endpoint: pEC50

>>> measured("COc1cccc(NC(=O)CN(C2=NC3CS(=O)(=O)CC3S2)c2cccc(C)c2)c1 (stereo unspecified)")
"< 3.52"
>>> measured("O=C(OCCCCOC(=O)c1ccccc1)c1ccccc1")
"< 3.52"
>>> measured("CCCn1nc(NC(=O)CC(C)C)c2cc3ccccc3nc21")
"< 3.52"
>>> measured("COc1ccc(Nc2oc(COc3ccccc3F)nc2C#N)cc1")
"< 3.52"
>>> measured("O=C(NCc1ccccn1)c1ccc(Cn2cc(Br)cn2)o1")
"< 3.52"
>>> measured("Cn1ncc(Br)c1C(=O)Nc1cccc(C(F)(F)F)c1")
"< 3.52"

###

We begin with a simple list: items and their reported EC50.
Target system: Glycogen synthase kinase-3 beta (Homo sapiens)
Test method notes: concentration-response blocking of human GSK3B – biochemical, luminescence, cell-free homogeneous, retest, dose response (AID 434954)
Measured endpoint: EC50

>>> measured("Fc1ccc(CSc2nnc(-c3ccncc3)o2)cc1")
"> 300 µM"
>>> measured("CC(C)[C@H](CO)Nc1nc(NCc2ccc(S(N)(=O)=O)cc2)c2ncn(C(C)C)c2n1")
"39.6 µM"
>>> measured("Cc1ccc(N2CSC3=C(C#N)C(c4cccs4)CC(=O)N3C2)cc1 (stereo unspecified)")
"> 300 µM"
>>> measured("CC1CCCCN1c1ncnc2ccccc12 (stereo unspecified)")
"> 300 µM"
>>> measured("COc1cccc(C(=O)NCCCNC(=O)c2cccc(OC)c2)c1")
"> 300 µM"
>>> measured("COc1ccc(-c2nn(-c3ccccc3)cc2C(=O)O)cc1")
"> 300 µM"
>>> measured("O=C(Oc1ccc(Cl)cc1)N1CCCCC1")
"> 300 µM"
>>> measured("COc1cccc2cc(C(=O)Oc3ccccc3)c(=O)oc12")
"> 300 µM"
>>> measured("CCC(=O)Nc1ccc(Nc2nc(C)c([N+](=O)[O-])c(Nc3ccc(NC(=O)CC)cc3)n2)cc1")
"> 300 µM"
>>> measured("O=C(O)c1cc(N=NCc2ccc(-c3ccc(F)cc3)o2)ccc1Cl")
"> 300 µM"
>>> measured("O=C(O)c1cc(-c2ccc(C=NN3C(=O)C4C5C=CC(CC5)C4C3=O)o2)ccc1Cl (stereo unspecified)")
"> 300 µM"
>>> measured("COc1cccc(-c2nc(SCC(=O)Nc3nc(-c4ccccc4)c(C)s3)[nH]c(=O)c2C#N)c1")
"> 300 µM"
>>> measured("C=CCn1c(SCC(=O)Nc2ccc(Cl)cn2)nnc1C1CC1")
"40 µM"
>>> measured("c1cncc(-c2nc(NCCCn3ccnc3)c3ccccc3n2)c1")
"30.7 µM"
>>> measured("CN(C)c1nc2c(N)ncnc2n1[C@H]1O[C@@H](CO)[C@H](O)[C@@H]1O")
"> 300 µM"
>>> measured("O=C(O)c1ccccc1Nc1ccccc1C(=O)O [2-[(2-carboxyphenyl)amino]benzoic acid]")
"> 300 µM"
>>> measured("O=C(Cc1ccc(Br)cc1)Nc1ncc([N+](=O)[O-])s1")
"4.3 µM"
>>> measured("Cc1ccc(Nc2nc(NCC3CCCO3)nc(N)c2[N+](=O)[O-])cc1C (stereo unspecified)")
"10.7 µM"
>>> measured("O=C(CSc1nnc(-c2ccncc2)o1)Oc1ccccc1")
"> 300 µM"
>>> measured("NS(=O)(=O)c1ccc(Nc2nc(-c3ccc(O)cc3O)cs2)cc1")
"5.73 µM"
>>> measured("N#Cc1c(-c2ccccc2)nc(-c2cccnc2)[nH]c1=O")
"> 300 µM"
>>> measured("N#Cc1c(N)nc(C(C#N)C#N)c(C#N)c1-c1ccccc1")
"19.2 µM"
>>> measured("COc1ccc(CNC(=O)CN(Cc2ccc(OC)cc2)C(=O)CCC(=O)Nc2nccs2)cc1")
"19.1 µM"
>>> measured("Cc1ccc2sc(N3CCN(CCNC(=O)c4ccco4)CC3)nc2c1C")
"> 300 µM"
>>> measured("CCCc1c(C(=O)NN=Cc2ccncc2)nnn1-c1nonc1N")
"> 300 µM"
>>> measured("CCOc1ccc(Nc2nc(N)c([N+](=O)[O-])c(NCc3ccccc3)n2)cc1")
"> 300 µM"
>>> measured("Cc1cc2cc(CN(CCCN3CCOCC3)C(=O)NC3CCCCC3)c(=O)[nH]c2cc1C")
"> 300 µM"
>>> measured("CCCCOC(=O)C1C(C)=Nc2ncnn2C1c1cc(OC)c(OC)cc1OC (stereo unspecified)")
"> 300 µM"
>>> measured("CCN(CC)CCN1C(=O)C(=O)C(C(=O)c2ccc(S(=O)(=O)N3CCOCC3)cc2)C1c1ccccc1 (stereo unspecified)")
"> 300 µM"
>>> measured("CCCCc1cc(=O)oc2c(CN(C)C)c(O)ccc12")
"> 300 µM"
>>> measured("COC(=O)c1sccc1NC(=O)c1cccc(OC)c1")
"> 300 µM"

###

We begin with a simple list: items and their reported EC50.
Target system: Glycogen synthase kinase-3 beta (Homo sapiens, UniProt P49841)
Test method notes: concentration-response blocking of human GSK3B – biochemical, luminescence, cell-free homogeneous, retest, dose response (AID 434954)
Measured endpoint: EC50

>>> measured("COc1cc(/C=C2\\Oc3cc(O)ccc3C2=O)ccc1O")
"12.4 µM"
>>> measured("CN(C)Cc1c(C(=O)NN=CCCc2ccccc2)nnn1-c1nonc1N")
"21.8 µM"
>>> measured("CCOc1ccc(CN=Nc2ccccn2)cc1OC")
"> 300 µM"
>>> measured("COc1ccc(C(=O)c2sc(Nc3ccccc3)nc2C)cc1")
"32.1 µM"
>>> measured("CC(=O)c1coc2ccc(OCC(=O)O)cc12")
"56.6 µM"
>>> measured("CN1CCN(CCNC(=O)Nc2ccccc2[N+](=O)[O-])CC1")
"> 300 µM"
>>> measured("CC1=NC(=O)NC(c2ccccc2OC(F)F)C1C(=O)OCc1ccccc1 (stereo not given)")
"4.4 µM"
>>> measured("CSc1nc(NCCCN(C)C)c2c3c(sc2n1)CN(C)CC3")
"> 300 µM"
>>> measured("COc1ccc2cc(C(N)=O)c(=NNC(=O)c3ccco3)oc2c1")
"> 300 µM"
>>> measured("CC(=O)N1CCc2c(sc(NC(=O)Cc3ccccc3)c2C(N)=O)C1")
"24.4 µM"
>>> measured("CSc1nc(NCC(C)C)c2c3c(sc2n1)CN(C)CC3")
"> 300 µM"
>>> measured("CCN1C(=O)[C@H]2[C@@H](c3ccc(-c4ccccc4)cc3)N[C@@](CC(C)C)(C(=O)OC)[C@H]2C1=O")
"> 300 µM"
>>> measured("O=C(NN=Cc1cc(Br)ccc1O)c1ccccc1Cl")
"> 300 µM"
>>> measured("COC(=O)c1ccc(Nc2nc(-c3ccncc3)nc3ccccc23)cc1")
"> 300 µM"
>>> measured("COc1ccc(C(O)c2coc3ccc(O)c(CN(C)C)c23)cc1 (stereo not given)")
"> 300 µM"
>>> measured("O=C(NCC(c1cccs1)N1CCOCC1)c1ccccc1NS(=O)(=O)c1ccc(Cl)cc1 (stereo not given)")
"> 300 µM"
>>> measured("CCN(CC)Cc1c(C(=O)NN=Cc2ccccn2)nnn1-c1nonc1N")
"9.91 µM"
>>> measured("CC(=O)N1CCc2c(sc(NC(=O)C3CCCCC3)c2C(N)=O)C1")
"> 300 µM"
>>> measured("CCn1c(SCC(=O)Nc2ccc(NC(C)=O)cc2)nnc1C1CC1")
"> 300 µM"
>>> measured("CCSc1nc2sc3c(c2c(=O)n1-c1ccccc1)CCN(C)C3")
"> 300 µM"
>>> measured("Cc1ccc(-n2c(C)nc3c(cnn3-c3ccc(F)cc3)c2=O)cc1C")
"> 300 µM"
>>> measured("CN(C)Cc1c(O)ccc2c(-c3ccccc3)cc(=O)oc12")
"> 300 µM"
>>> measured("CC(CC(=O)Nc1nnc(C(C)(C)C)s1)c1ccccc1 (stereo not given)")
"> 300 µM"
>>> measured("CCCNc1nc(N)nc(-c2cc(Cl)ccc2OC)n1")
"> 300 µM"
>>> measured("c1cncc(CNc2nc(-c3cccnc3)nc3ccccc23)c1")
"> 300 µM"
>>> measured("Nc1nc(NC2CCCCC2)nc(NCCO)c1[N+](=O)[O-]")
"2.16 µM"
>>> measured("Cn1nnnc1Sc1c(Cl)cccc1[N+](=O)[O-]")
"> 300 µM"
>>> measured("Cc1c(C(=O)O)sc2c1c(=O)n(Cc1ccccc1)c(=O)n2C")
"> 300 µM"
>>> measured("COc1cc(-c2cc(=O)c3c(O)c(OC)c(OC)c(O)c3o2)ccc1O")
"24.9 µM"
>>> measured("CC(O)c1cccc(NC2=CC(=O)CC(C)(C)C2)c1 (stereo not given)")
"> 300 µM"
>>> measured("COc1cccc(CCNC(=O)c2ccc(C#N)cc2)c1")
"> 300 µM"
>>> measured("COCCCNC(=O)c1ccc(CS(=O)(=O)c2ccc(OC)cc2)o1")
"> 300 µM"
>>> measured("COc1ccccc1-c1nc(C(=O)NCC2CCCO2)cc2c1[nH]c1ccccc12 (stereo not given)")
"> 300 µM"
>>> measured("O=C1NCCCc2c1oc1cc(Br)c(O)c(Br)c21")
"40.7 µM"
>>> measured("CC(N=O)c1ncc(C(F)(F)F)cc1Cl (stereo not given)")
"> 300 µM"

Taken from BindingDB's records for doi:10.7270/Q2TX3CTT.
